Entries annotated with measured protein stability index
B1: ANKRD9 (parent)
chain: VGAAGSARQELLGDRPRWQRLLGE

Variants of: B1
experiment: protein stability index of a GFP-peptide fusion (GPS, HEK-293T) (PSI 1-6); higher = more stable;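 also: lentivirally expressed fusions sorted by FACS into six bins by GFP to DsRed ratio, PSI derived from sequencing read proportions per bin multiplied by bin number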
condition-info: c terminus: a fixed tail appended
The answer should be written as a number, with no unit following it.

Below are worked cases with known answers.
• Q9A = 3.37
• R15F = 2.75
• V1Y = 2.56
• A7V = 2.73
• E10P = 1.62
• L12V = 2.49
• E10F = 3.33
• P16Q = 2.65
• G13H = 3.46
• A3M = 2.53

Q: # input variant: D14L ; wanted: its protein stability index
Ans: 2.36

Q: # input variant: E24F ; wanted: its protein stability index
Ans: 2.68

Q: # input variant: L21K ; wanted: its protein stability index
Ans: 4

Where these numbers come from: the supplement of paper PMC10567573
